- target_or_test_system: DNA repair nuclease/redox regulator APEX1 (Homo sapiens, UniProt P27695)
- Sequence (P27695 whole entry): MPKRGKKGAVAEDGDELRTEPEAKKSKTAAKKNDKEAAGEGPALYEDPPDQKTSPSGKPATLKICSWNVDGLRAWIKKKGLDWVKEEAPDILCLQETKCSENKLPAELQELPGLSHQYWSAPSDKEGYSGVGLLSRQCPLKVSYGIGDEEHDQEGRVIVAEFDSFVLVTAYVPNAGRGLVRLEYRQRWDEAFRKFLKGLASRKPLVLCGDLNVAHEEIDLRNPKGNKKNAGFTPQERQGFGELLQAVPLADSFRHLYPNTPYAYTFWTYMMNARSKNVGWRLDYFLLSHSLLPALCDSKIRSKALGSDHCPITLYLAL
- method: Inhibition of human recombinant APE1 after 15 mins by fluorescence based HTS assay
pIC50: −log10 of the molar value.
observable: pIC50

{"chemical_smiles": "CC(=O)Nc1sc2c(c1-c1nc3ccccc3s1)CCN(C)C2", "meas_value": 5.42}

(I) O=C(Nc1sc2c(c1-c1nc3ccccc3s1)CCNC2)C(F)F
(II) CC(C)N1CCc2c(sc(NC(=O)C3CCCCC3)c2-c2nc3ccccc3s2)C1
I need your help: which of the pair I , II has higher pIC50? Your answer should be the label attached to the chosen record.
I
(I: 5.42, II: 5.08)
